assay-info: in vitro
experimental-conditions: human, hela cells, % viability
Quick reference for viability at 28.5 h, 10 µM among some molecules
Entry rule: numbers only, all in %.

- molecule: "CSc1[nH]nc(-c2ccc(C(C)(C)C)cc2)c1C#N [CBK016999]"
  viability at 28.5 h, 10 µM [%]: 108
- molecule: "CCCn1c(CN2CCOCC2)nc2ccccc21 [CBK287784]"
  viability at 28.5 h, 10 µM [%]: 99.1
- molecule: "CCN(CCN1CCOCC1)C(=O)c1[nH]c2c(F)cccc2c1C [CBK306772]"
  viability at 28.5 h, 10 µM [%]: 90.3
- molecule: "COc1ccc(/C=C/C(C)=C\\C(=O)O)c(OC)c1 [CBK262237N]"
  viability at 28.5 h, 10 µM [%]: 94.8
- molecule: "CC(=O)c1c(CSc2ccccc2)nn2c1CCCC2 [CBK016543]"
  viability at 28.5 h, 10 µM [%]: 78.9
- molecule: "Cc1noc(C2=CC=CN3C2=NNC32CCNCC2)n1 [CBK288058]"
  viability at 28.5 h, 10 µM [%]: 91

Challenge: Specify reported viability at 28.5 h, 10 µM for the molecule shown: NC(=O)c1ccccc1NC(=O)c1ccc(C(=O)Nc2ccccc2C(N)=O)cc1 [CBK261167]
Response given: 106

Challenge: Specify reported viability at 28.5 h, 10 µM for the molecule shown: NS(=O)(=O)c1ccc(/N=C/c2ccc(OCc3ccccc3)cc2)cc1 [CBK261585]
Response given: 98.3

Challenge: Specify reported viability at 28.5 h, 10 µM for the molecule shown: OCCCNc1cncc(-c2ccc(F)cc2F)n1 [CBK065851]
Response given: 96.1

---

assay-info: in vitro
experimental-conditions: human, hela cells, % viability
observed-property: viability at 28.5 h, 10 µM (%)
Entry rule: numbers only, all in %.

Worked cases, answers included:
- compound: "COc1ccccc1C(=O)O/N=C1/CCCc2c1ccc(OC)c2[N+](=O)[O-] [CBK263555]"
  viability at 28.5 h, 10 µM / %: 102
- compound: "CCCC(N)CCCCCC(=O)O (centres unmarked) [CBK217078]"
  viability at 28.5 h, 10 µM / %: 91.8
- compound: "COc1ccc(Nc2nc(-c3ccc(Cl)cc3)cn3ccnc23)cn1 [CBK066254]"
  viability at 28.5 h, 10 µM / %: 113
- compound: "FC(F)(F)c1ccnc(OCCCc2ccncc2)n1 [CBK115799]"
  viability at 28.5 h, 10 µM / %: 97.5

Challenge: Specify reported viability at 28.5 h, 10 µM for the compound shown: O=C(Nc1cc(Oc2cccnc2)cc([N+](=O)[O-])c1)c1nn2c(C(F)(F)F)cc(-c3cccs3)nc2c1Br [CBK262535]
Response given: 84.7

Challenge: Specify reported viability at 28.5 h, 10 µM for the compound shown: COCCNc1nc2c(c(N3CCSCC3)n1)CCNCC2 [CBK307510]
Response given: 111

Challenge: Specify reported viability at 28.5 h, 10 µM for the compound shown: CC(=O)Nc1ccc(-c2ccc(COC3CCN(C(=O)c4ccc(F)cc4F)CC3)cc2)cc1 [CBK149216]
Response given: 101

Challenge: Specify reported viability at 28.5 h, 10 µM for the compound shown: Cc1sc2nc(C3CC3)n(C3CCNCC3)c(=O)c2c1C [CBK284228]
Response given: 92.3

Challenge: Specify reported viability at 28.5 h, 10 µM for the compound shown: CCn1cc(NC(=O)CCn2c(C(F)F)cc3cccnc32)cn1 [CBK282769]
Response given: 97.1

Challenge: Specify reported viability at 28.5 h, 10 µM for the compound shown: CCNC(=O)N1CCN(CCCCN2C(=O)CC3(CCCC3)CC2=O)CC1 [CBK024999C]
Response given: 102

Challenge: Specify reported viability at 28.5 h, 10 µM for the compound shown: COc1cc(Nc2cncc(-c3ccccc3CO)n2)cc(OC)c1OC [CBK037160]
Response given: 95.4

---

assay-info: in vitro
experimental-conditions: human, hela cells, % viability
Quick reference for viability at 28.5 h, 10 µM among some compounds
Entry rule: numbers only, all in %.

Worked cases, answers included:
- compound: "Cc1cc(=O)[nH]c(SCCC(=O)O)n1 [CBK268242]"
  viability at 28.5 h, 10 µM [%]: 106
- compound: "Cn1nc(C2CCCN(C(=O)C3CC3)C2)c2cccnc21 (stereo not drawn) [CBK282654]"
  viability at 28.5 h, 10 µM [%]: 89.4
- compound: "O=c1[nH]c2cc3nn[nH]c3cc2[nH]1 [CBK018154]"
  viability at 28.5 h, 10 µM [%]: 99.9
- compound: "O=C(NNc1ccc([N+](=O)[O-])cc1)c1cccs1 [CBK261709]"
  viability at 28.5 h, 10 µM [%]: 92.1
- compound: "CN(C)CCCNC(=O)c1ccc([N+](=O)[O-])o1 [CBK262118]"
  viability at 28.5 h, 10 µM [%]: 92.8

Challenge: Specify reported viability at 28.5 h, 10 µM for the compound shown: CC(C)Oc1ccc(C(=O)N2CCC(COc3ccc(-c4ccc(S(C)(=O)=O)cc4)cn3)CC2)nc1 [CBK161989]
Response given: 86.8

Challenge: Specify reported viability at 28.5 h, 10 µM for the compound shown: CC(=O)Oc1cc(C)cc(C#N)c1 [CBK038296]
Response given: 87.6

Challenge: Specify reported viability at 28.5 h, 10 µM for the compound shown: COc1ccc(OCCNC(=O)C2(c3ccc(OC)cc3)CC2)cc1 [CBK149821]
Response given: 91.8

Challenge: Specify reported viability at 28.5 h, 10 µM for the compound shown: O=C(NCC1CCOCC1)c1cc(-c2cccnc2)cnc1NCc1ccc2c(c1)OCO2 [CBK154825]
Response given: 104

Challenge: Specify reported viability at 28.5 h, 10 µM for the compound shown: FC(F)(F)c1ccnc(OCCc2c[nH]c3ccccc23)n1 [CBK116625]
Response given: 80.2

Challenge: Specify reported viability at 28.5 h, 10 µM for the compound shown: Nc1nc(SCCCN2C(=O)c3cccc4cccc(c34)C2=O)nc2sc3c(c12)CCCC3 [CBK264433]
Response given: 99.1

---

assay-info: in vitro
experimental-conditions: human, hela cells, % viability
Quick reference for viability at 28.5 h, 10 µM among some compounds
Entry rule: numbers only, all in %.

Worked cases, answers included:
- compound: "CC1Cc2ccccc2N1C(=O)c1nn(C)cc1I (centres unmarked) [CBK058268]"
  viability at 28.5 h, 10 µM [%]: 97.3
- compound: "COc1ccc(OCCn2c(C(C)O)nc3ccccc32)cc1 (centres unmarked) [CBK269905]"
  viability at 28.5 h, 10 µM [%]: 93.2
- compound: "O=C(COc1ccc(S(=O)(=O)NC2CCCCC2)cc1)N1CCN(c2cccc(Cl)c2)CC1 [CBK265948]"
  viability at 28.5 h, 10 µM [%]: 90.6
- compound: "O=C(NC(c1ccccc1)c1ccco1)C1CCN(C(=O)c2cccs2)CC1 (centres unmarked) [CBK059854]"
  viability at 28.5 h, 10 µM [%]: 82.4
- compound: "Cc1nn(-c2ccc(F)cc2)c2[nH]c(=O)c(CNC(C)C)cc12 [CBK283119]"
  viability at 28.5 h, 10 µM [%]: 95.7
- compound: "CC(=O)Nc1ccc(C#CC2(NC(=O)C3CC3)CCCCC2)cn1 [CBK284676]"
  viability at 28.5 h, 10 µM [%]: 87.4
- compound: "CCC1CCCCN1C(=O)c1ccc(C(C)(C)C)cc1 (centres unmarked) [CBK076644]"
  viability at 28.5 h, 10 µM [%]: 103
- compound: "CCCC(=O)Nc1ccccc1OC1CCNCC1 [CBK045902T]"
  viability at 28.5 h, 10 µM [%]: 98
- compound: "COCC(=O)N1CCc2sccc2C1c1ccc(NC(=O)c2ccc(F)cc2)cc1 (centres unmarked) [CBK286435]"
  viability at 28.5 h, 10 µM [%]: 93.8
- compound: "O=C(c1ccsc1)N1CCC2(CC1)CN(Cc1ccccc1)CC(c1ccccc1)O2 (centres unmarked) [CBK286438]"
  viability at 28.5 h, 10 µM [%]: 94.4

Challenge: Specify reported viability at 28.5 h, 10 µM for the compound shown: CC(C)NC(=O)[C@H]1O[C@H](CCN2CCOCC2)CC[C@@H]1O [CBK288720]
Response given: 108

Challenge: Specify reported viability at 28.5 h, 10 µM for the compound shown: O=C(O)c1cccc(S(=O)(=O)Nc2nc3ccc(Cl)cc3s2)c1 [CBK299793]
Response given: 103

Challenge: Specify reported viability at 28.5 h, 10 µM for the compound shown: Cn1ncnc1COc1ccc(S(=O)(=O)N2CCCCC2CN)cc1 (centres unmarked) [CBK304313C]
Response given: 82.3

Challenge: Specify reported viability at 28.5 h, 10 µM for the compound shown: CCCCN(C)c1c(C)nc2c(OCC(=O)c3ccc(F)cc3)cccn12 [CBK147172]
Response given: 93.1

Challenge: Specify reported viability at 28.5 h, 10 µM for the compound shown: COc1nccnc1N1CCN(Cc2ccccc2)CC1 [CBK084210]
Response given: 90

Challenge: Specify reported viability at 28.5 h, 10 µM for the compound shown: O=C(Nc1cccnc1)c1cccnc1C(=O)O [CBK269663]
Response given: 90.1

Challenge: Specify reported viability at 28.5 h, 10 µM for the compound shown: CN(C)Cc1cnn(-c2ccc(Oc3ccccc3)cc2)n1 [CBK112865]
Response given: 100

Challenge: Specify reported viability at 28.5 h, 10 µM for the compound shown: CC(=O)N1CC2(CCN(C(=O)c3ccco3)CC2)Nc2ccccc21 [CBK284447]
Response given: 95.5

Challenge: Specify reported viability at 28.5 h, 10 µM for the compound shown: N#Cc1cc2c(nc1SCC(O)COCc1ccccc1)CCCC2 (centres unmarked) [CBK265967]
Response given: 104

Challenge: Specify reported viability at 28.5 h, 10 µM for the compound shown: COc1ccc2c(ccn2CC(=O)NC[C@H]2CC[C@H](C(=O)O)CC2)c1 [CBK286687]
Response given: 110
